# TARGET DESC: Glutamate [NMDA] receptor
# PROCEDURE DETAILS: Inhibition of NMDA receptor (unknown origin)
# Design: species or system Homo sapiens
ASSAY ENDPOINT: IC50 (µM)
Reply numerically in µM, unit not repeated.

Record O=C(O)c1cc(=O)c2ccccc2[nH]1 [TRANSTORINE] has Glutamate [NMDA] receptor IC50 equal to 15

* * *

# TARGET DESC: UniProtKB Q9ES90
# Sequence (Q9ES90 whole entry): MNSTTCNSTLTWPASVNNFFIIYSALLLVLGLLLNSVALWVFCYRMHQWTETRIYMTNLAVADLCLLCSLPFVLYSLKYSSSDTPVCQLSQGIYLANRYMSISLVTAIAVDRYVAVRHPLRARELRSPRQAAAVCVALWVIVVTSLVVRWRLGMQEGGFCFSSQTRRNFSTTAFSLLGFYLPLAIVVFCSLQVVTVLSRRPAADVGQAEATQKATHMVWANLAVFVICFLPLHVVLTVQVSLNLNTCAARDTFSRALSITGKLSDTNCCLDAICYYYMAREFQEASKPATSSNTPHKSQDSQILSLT
# PROCEDURE DETAILS: Agonist activity at mouse GPR35 expressed in CHO cells assessed as induction of beta-arrestin recruitment at 10 uM after 90 mins by beta-galactosidase reporter gene assay
# Type: cell-based
The entries below come with measured Activity values attached.
Reply numerically in %, unit not repeated.

| SMILES CODE | TARGET DESC | OBSERVED RESULT |
| --- | --- | --- |
| COc1ccc(C(=O)Nc2cc(Br)cc3c(=O)cc(C(=O)O)oc23)c(Cl)c1 | UniProtKB Q9ES90 | 35 |
| O=C(Nc1cc(F)cc2c(=O)cc(C(=O)O)oc12)c1ccc(Cl)c(Cl)c1 | UniProtKB Q9ES90 | 37 |
| Cc1cccc(C(=O)Nc2cc(Cl)cc3c(=O)cc(C(=O)O)oc23)c1 | UniProtKB Q9ES90 | 31 |
| O=C(Nc1cccc2c(=O)cc(C(=O)O)oc12)c1ccc(C(F)(F)F)cc1 | UniProtKB Q9ES90 | 23 |

Record COC(=O)CC(=O)Nc1cccc2c(=O)cc(C(=O)O)oc12 has UniProtKB Q9ES90 Activity equal to 15

Record CCC(=O)Nc1cccc2c(=O)cc(C(=O)O)oc12 has UniProtKB Q9ES90 Activity equal to 12

Record Cc1cccc(C(=O)Nc2cc(Br)cc3c(=O)cc(C(=O)O)oc23)c1 has UniProtKB Q9ES90 Activity equal to 27

Record CC(=O)Nc1cccc2c(=O)cc(C(=O)O)oc12 has UniProtKB Q9ES90 Activity equal to 3

Record COc1ccc(C(=O)Nc2cc(Cl)cc3c(=O)cc(C(=O)O)oc23)cc1 has UniProtKB Q9ES90 Activity equal to 34

Record CCCOc1ccc(C(=O)Nc2cccc3c(=O)cc(C(=O)O)oc23)cc1 has UniProtKB Q9ES90 Activity equal to 13

Record O=C(Cc1ccccc1)Nc1cccc2c(=O)cc(C(=O)O)oc12 has UniProtKB Q9ES90 Activity equal to 19

Record O=C(O)c1cc(=O)c2cc(Br)cc(NC(=O)c3ccc(Cl)cc3Cl)c2o1 has UniProtKB Q9ES90 Activity equal to 12
